The reader will find reported half-life values listed item by item below.
Test: Half life in rat at 1 mg/kg, iv
Assay type: ADME, organism-based
Design: dose 1 mg/kg, route intravenous
Settings: in vivo
assay.endpoint: half-life (min)

> print(dat)
                                  structure  assay.endpoint  inequality.operator  reading
1  CN(C)C(=O)N1CC(c2cc(F)ccc2F)=C[C@H]1c1cccc(O)c1       half-life                    =       18
2  CN(C)C(=O)N1CC(c2cc(F)ccc2F)=C[C@H]1c1cccc(OP(=O)(O)O)c1       half-life                    =        9
3  CC(C)(C)[C@H](NC(=O)OCCOP(=O)(O)O)C(=O)N1CC(c2cc(F)ccc2F)=C[C@H]1c1ccccc1       half-life                    <        6
4  CC(C)(C)[C@H](NC(=O)OCCO)C(=O)N1CC(c2cc(F)ccc2F)=C[C@H]1c1ccccc1       half-life                    =       18

* * *

Target: UniProt:Q12809
Sequence (Q12809 whole entry): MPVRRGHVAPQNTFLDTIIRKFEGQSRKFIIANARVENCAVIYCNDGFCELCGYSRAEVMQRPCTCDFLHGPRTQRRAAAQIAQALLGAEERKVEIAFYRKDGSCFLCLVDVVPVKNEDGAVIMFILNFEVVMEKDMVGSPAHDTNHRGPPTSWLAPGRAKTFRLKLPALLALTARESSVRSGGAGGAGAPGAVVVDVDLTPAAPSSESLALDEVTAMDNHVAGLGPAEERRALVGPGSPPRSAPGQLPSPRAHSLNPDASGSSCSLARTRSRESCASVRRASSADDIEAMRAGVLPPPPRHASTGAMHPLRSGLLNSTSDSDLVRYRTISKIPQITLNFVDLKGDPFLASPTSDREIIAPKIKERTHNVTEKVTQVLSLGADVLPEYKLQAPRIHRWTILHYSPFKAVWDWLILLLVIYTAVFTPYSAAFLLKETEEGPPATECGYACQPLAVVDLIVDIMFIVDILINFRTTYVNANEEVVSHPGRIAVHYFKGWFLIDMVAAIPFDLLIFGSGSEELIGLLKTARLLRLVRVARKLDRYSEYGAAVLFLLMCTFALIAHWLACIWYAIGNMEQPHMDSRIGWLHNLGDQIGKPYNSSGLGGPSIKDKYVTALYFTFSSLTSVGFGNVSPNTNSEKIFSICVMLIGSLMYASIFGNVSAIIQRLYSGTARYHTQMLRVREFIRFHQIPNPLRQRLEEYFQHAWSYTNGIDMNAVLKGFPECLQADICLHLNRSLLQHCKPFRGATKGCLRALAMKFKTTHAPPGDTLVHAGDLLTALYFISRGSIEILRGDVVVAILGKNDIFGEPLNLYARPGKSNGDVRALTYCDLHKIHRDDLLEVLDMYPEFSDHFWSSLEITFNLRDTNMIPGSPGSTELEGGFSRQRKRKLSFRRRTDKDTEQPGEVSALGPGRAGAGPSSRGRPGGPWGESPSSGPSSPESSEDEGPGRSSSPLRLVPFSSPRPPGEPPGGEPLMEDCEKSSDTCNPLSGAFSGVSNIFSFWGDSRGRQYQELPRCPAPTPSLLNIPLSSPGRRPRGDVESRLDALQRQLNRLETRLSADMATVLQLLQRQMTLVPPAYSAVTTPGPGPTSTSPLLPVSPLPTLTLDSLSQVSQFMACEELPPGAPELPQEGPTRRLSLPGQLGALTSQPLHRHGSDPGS
pIC50: −log10 of the molar value.
assay.endpoint: pIC50

> print(dat)
                                  structure  reading
1  CC(C)(C)C(=O)N1CC(c2cc(F)ccc2F)=C[C@H]1c1cccc(O)c1     5.11
